Tested on: T1, (His)6-MED23_(391-582) protein (UniProt Q9ULK4 391-582)
T1 construct: MED23 (mediator of RNA polymerase II transcription subunit 23), residues 391-582
T1 sequence (looked up): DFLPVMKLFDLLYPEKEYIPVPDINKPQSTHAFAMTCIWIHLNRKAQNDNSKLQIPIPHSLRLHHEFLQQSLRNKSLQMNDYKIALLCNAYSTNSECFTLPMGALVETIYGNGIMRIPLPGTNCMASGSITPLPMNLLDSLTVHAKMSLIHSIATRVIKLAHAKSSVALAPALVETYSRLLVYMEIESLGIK
Assay overview: fluorescence polarisation; cell-free; different concentrations of (His)6-MED23(391-582) with 10 nM FITC-ELF3(129-145) in assay buffer; least-squares non-linear fit; n=3
Experimental context: both partners purified
Ends that are not written are not given here.
Quantity measured: Kd (nM)
Numeric answer only, unit nM assumed.

Recorded Kd (binder TSSSSDELSWIIELLEK (peptide, UniProt P78545 129-145, looked up, also: FITC label, position not given here, also called ELF3-FITC peptide (17 a.a.)) [fluorescein isothiocyanate (FITC)-labeled ELF3_(129-145) peptide] ): 10.2
